# System: MOLT-4 leukemia
# assay: NCI tumour cell line growth inhibition, 48 h; in the data active means GI50 below about 0.43 µM; inactive means the rest
Result category, one only: TRUE (active), FALSE (inactive)

Observe how each entry below is paired with its result.
{"molecule": "O=C(O)Cn1c2c(c3c(O)cccc31)C(=O)c1ccccc1-2", "assayed_system": "MOLT-4 leukemia", "classification": "FALSE"}
{"molecule": "CO[C@@H]1[C@H]2[C@@H](C)c3ccoc3C[C@@H]2[C@@]2(C)CC[C@H](OC(=O)c3ccccc3)[C@](C)(C(=O)O)[C@]2(O)[C@@H]1OC(=O)c1ccccc1", "assayed_system": "MOLT-4 leukemia", "classification": "FALSE"}
{"molecule": "CCOc1c(C#N)c2c(N)ncnc2n1C1OC(CO)C(O)C1O (stereo not drawn)", "assayed_system": "MOLT-4 leukemia", "classification": "FALSE"}
{"molecule": "CC(=O)C1CCC2C3CC=C4CC(SC(=N)N)CCC4(C)C3CCC12C (stereo not drawn)", "assayed_system": "MOLT-4 leukemia", "classification": "FALSE"}
{"molecule": "COc1cc(/C=C\\c2cc(/C=C\\c3ccc(O)c(OC)c3)n(C(=O)CNc3ccc(Cl)cc3)n2)ccc1O", "assayed_system": "MOLT-4 leukemia", "classification": "FALSE"}

-- ask Record lookup: outcome of this test for `Cc1cn2c(/C=C3/C(=O)Nc4ccc(F)cc43)c(C)nc2s1` ?
-- reply FALSE

-- ask Record lookup: outcome of this test for CSc1ccc(C2=NN(C(C)=O)C(c3ccc(F)cc3)C2)cc1 (stereo not drawn) ?
-- reply FALSE

-- ask Record lookup: outcome of this test for `COc1ccc2c(c1)C(=O)c1c-2n(CCCN)c(=O)c2cc(OC)c(OC)cc12` ?
-- reply TRUE

====

# Tested on: HL-60(TB) leukemia
# assay: NCI tumour cell line growth inhibition, 48 h
value_kind: TGI

Some solved cases for reference:
{"structure_string": "CCc1nc2cc(/C=C/C(=O)NO)ccc2c(=O)n1CCc1ccc(F)cc1", "assayed_system": "HL-60(TB) leukemia", "value_kind": "TGI", "endpoint_value": "> 100 µM"}
{"structure_string": "COc1cc(-c2ccc(NC(=O)NC3CC3)c(OC)c2)ccc1NC(=O)NC1CC1", "assayed_system": "HL-60(TB) leukemia", "value_kind": "TGI", "endpoint_value": "> 100 µM"}

-- ask # return recorded TGI for entry `O=C1CN(c2ccc(Cl)cc2)C(=O)CN1NCNN1CC(=O)N(c2ccc(Cl)cc2)CC1=O`
-- reply > 100 µM

====

# Tested on: U251 CNS
# assay: NCI tumour cell line growth inhibition, 48 h
In this section we review reported TGI values for a set of compounds.

Some solved cases for reference:
{"compound": "COc1ncnc2c1cnn2Cc1cn(CCCCO)nn1", "TGI": "> 100 µM"}
{"compound": "NC(N)=NC(N)=Nc1ccccc1 (tested in a mixture with another compound)", "TGI": "> 100 µM"}

Would you kindly look at the next entry?
-- ask # return recorded TGI for entry `CCCCN=C1OCc2[nH][nH]c(=O)c21`
-- reply > 100 µM

====

In this section we review reported GI50 values for a set of compounds.
# Test system: SW-620 colon
# assay: NCI tumour cell line growth inhibition, 48 h

{"structure_string": "O=C(Nc1nc(-c2ccc(Cl)cc2)nc2c1sc(=S)n2-c1ccccc1)C(F)(F)F", "value_kind": "GI50", "endpoint_value": "4340 nM"}
{"structure_string": "CCCCCCN(C)Cc1ccc(OCCOc2ccc(CN(C)CCCCCC)cc2)cc1", "value_kind": "GI50", "endpoint_value": "1480 nM"}
{"structure_string": "CCC[CH2][Sn]([CH2]CCC)([O]C(=O)c1cc(F)cc(F)c1)[O][Sn]([CH2]CCC)([CH2]CCC)[O]C(=O)c1cc(F)cc(F)c1", "value_kind": "GI50", "endpoint_value": "626 nM"}

-- ask # return recorded GI50 for entry `CO[C@@H]1[C@H]2[C@@H](C)c3ccoc3C[C@@H]2[C@@]2(C)CC[C@H](OC(=O)c3ccccc3)[C@](C)(C(=O)O)[C@]2(O)[C@@H]1OC(=O)c1ccccc1`
-- reply 9300 nM

====

In this section we review reported TGI values for a set of molecules.
# Tested on: UO-31 renal
# assay: NCI tumour cell line growth inhibition, 48 h

-- ask # return recorded TGI for entry `[O-][n+]1c(-c2ccccc2)c2nc3ccccc3nc2c2ccccc21`
-- reply > 100 µM

-- ask # return recorded TGI for entry `COc1cc2c(cc1OC)c1c(OC)c(OC)cc3c1c1c2sc(=S)n1CC3`
-- reply > 100 µM

-- ask # return recorded TGI for entry OC(c1ccccc1)C(F)(F)c1nc2ccccc2o1 (stereo not drawn)
-- reply > 100 µM

====

# Tested on: T-47D breast
# assay: NCI tumour cell line growth inhibition, 48 h
value_kind: TGI

{"compound": "CC1CC(C)C2=NOS3=C2C1=NO3 (stereo not given)", "endpoint_value": "> 100 µM"}
{"compound": "COC(=O)C1=C(C(=O)OC)C2OC1c1cc3ccccc3cc12", "endpoint_value": "7.49 µM"}
{"compound": "O=C(O)c1ccc(Nc2nc3cc(C(F)(F)F)ccc3nc2-c2ccccc2)cc1", "endpoint_value": "35.1 µM"}
{"compound": "O=C(CN(c1ccc(S(=O)(=O)O)cc1)c1ccc(S(=O)(=O)O)cc1)Nn1cnc2ccc(S(=O)(=O)N(c3ccc(S(=O)(=O)O)cc3)c3ccc(S(=O)(=O)O)cc3)cc2c1=O", "endpoint_value": "> 100 µM"}
{"compound": "CCCOC1OC(CS(=O)(=O)O)C(O)C(O)C1O (stereo not given)", "endpoint_value": "> 100 µM"}

-- ask # return recorded TGI for entry `CC(C)(C)NC/C(=C\c1ccccc1)C(=O)c1ccccc1`
-- reply 8.98 µM

-- ask # return recorded TGI for entry CC(O[Si](c1ccccc1)(c1ccccc1)C(C)(C)C)[C@H](NC(=O)OC(C)(C)C)C(=O)O (stereo not given in full)
-- reply > 100 µM

-- ask # return recorded TGI for entry `O=C(NNC(=S)Nc1ccccc1)c1ccccn1`
-- reply > 100 µM

-- ask # return recorded TGI for entry `N#CCCN(CCC#N)c1ccc(C(N=Nc2ccc(Cl)cc2)=Nc2ccc(F)cc2)cc1`
-- reply > 100 µM

-- ask # return recorded TGI for entry `CN(C)Cc1cc(N=Nc2ccc(Cl)cc2)ccc1O`
-- reply 28.3 µM

-- ask # return recorded TGI for entry `Oc1ccc(-c2cn3cc(C(F)(F)F)ccc3n2)cc1`
-- reply 60.7 µM

-- ask # return recorded TGI for entry `Cc1cc(C)n(CN(Cn2nc(C)cc2C)c2ccccc2)n1`
-- reply > 100 µM

-- ask # return recorded TGI for entry CC(CCCC1SCC2NC(=O)NC21)C(=O)O (stereo not given)
-- reply > 100 µM

====

# Tested on: SF-539 CNS
# assay: NCI tumour cell line growth inhibition, 48 h
Where a SMILES comes first, the peptide text is derived from it. [ ]: non-standard residue; d: D form. 2Nal = N[CH](Cc1ccc2ccccc2c1)C(=O)O
value_kind: TGI

{"compound": "O=C(O)c1ccc(Nc2nc3cc(C(F)(F)F)ccc3nc2-c2ccccc2)cc1", "TGI": "56.4 µM"}
{"compound": "COc1ccc(/C=c2/sc3n(c2=O)NC(c2ccc(Cl)cc2)NN=3)cc1 (configuration not stated)", "TGI": "> 100 µM"}
{"compound": "CN(C)CCCNC(=O)c1cc(NC(=O)c2cc(NC(=O)[C@@H]3C[C@H]3C(=O)Nc3cc(C(=O)Nc4cc(C(=O)NCCCN(C)C)n(C)c4)n(C)c3)cn2C)cn1C", "TGI": "> 100 µM"}

-- ask # return recorded TGI for entry CC(C)C(NC(=O)C(CCCCN)NC(=O)C(Cc1c[nH]c2ccccc12)NC(=O)C(Cc1ccc(O)cc1)NC(=O)C(CS)NC(=O)C(N)Cc1ccc2ccccc2c1)C(=O)NC(CS)C(=O)NC(C(N)=O)C(C)O (configuration not stated) (H-[2Nal]CYWKVCT-NH2; configuration not given here)
-- reply > 100 µM

-- ask # return recorded TGI for entry COc1ccc(/C=C2\CC(C)CC3C2=NN(c2ccccc2)C3c2ccc(OC)c(OC)c2)cc1OC (configuration not stated)
-- reply 24.9 µM

-- ask # return recorded TGI for entry Cc1c(C2Cc3ccccc3N2)c2ccccc2n1C (configuration not stated)
-- reply > 100 µM

-- ask # return recorded TGI for entry `CC(=N)N(C)O`
-- reply > 100 µM

====

In this section we review reported TGI values for a set of molecules.
# Test system: SK-MEL-28 melanoma
# assay: NCI tumour cell line growth inhibition, 48 h

Some solved cases for reference:
{"structure_string": "Cc1cc2c(cc1C)C(=O)/C(=N/Nc1ccc(F)cc1)CCO2", "TGI": "> 100 µM"}
{"structure_string": "O=C(O)c1ccc(Nc2nc3cc(C(F)(F)F)ccc3nc2-c2ccccc2)cc1", "TGI": "> 100 µM"}

Would you kindly look at the next entry?
-- ask # return recorded TGI for entry `O=C1CN(c2ccc(Cl)cc2)C(=O)CN1NCNN1CC(=O)N(c2ccc(Cl)cc2)CC1=O`
-- reply > 100 µM
